test: Hansen solubility parameters (HSP) from rated solvent library, optimized in HSPiP; Ra and RED versus water; type: physicochemical; details: distance to water HSP of dilute condition (15.1, 20.4, 16.5)
measurement type: Water1 Ra (MPa^0.5)
Could you give me the number in MPa^0.5? Just the number is fine.

Recorded results for 3 compounds are shown here.
smiles notation: c1ccc(-c2nc3c4cccnc4c4ncccc4c3o2)nc1
Water1 Ra [MPa^0.5]: 16.4
--
smiles notation: c1ccc(-c2nc3c4ccccc4c4ccccc4c3o2)cc1
Water1 Ra [MPa^0.5]: 18.2
--
smiles notation: c1ccc(-c2nc3c4ccccc4c4ccccc4c3[nH]2)cc1
Water1 Ra [MPa^0.5]: 13.3

Exercise: So what's the measured Water1 Ra for this one? c1cnc2c(c1)c1nc(-c3ccncc3)[nH]c1c1cccnc12
Solution: 5.5

Exercise: Continue with c1cncc(-c2nc3c4cccnc4c4ncccc4c3o2)c1
Solution: 14.9

Exercise: Moving on to c1ccc(-c2nc3c4ccccc4c4ccccc4c3o2)nc1
Solution: 18.1

----------
Assay: Hansen solubility parameters (HSP) from rated solvent library, optimized in HSPiP; Ra and RED versus water
Assay type: physicochemical
Settings: distance to water HSP of dense condition (18.1, 17.1, 16.9)
Description: To figure out why the doped N/O heteroatoms on the aromatic skeletons can both influence their hydrophilicity and aqueous solubility, we employed the Hansen solubility parameters (HSP) to interpret this phenomenon. This method developed by Charles Hansen et al.[30] has found broad use both in academia and industry for predicting the compatibility or affinity between two substances[31]–[34]. […]
measurement type: Water2 Ra (MPa^0.5)
Give just the numeric value; MPa^0.5 need not be written.

Known Water2 Ra results, listed for orientation:
smiles notation: c1ccc(-c2nc3c4cccnc4c4ncccc4c3o2)nc1
unit spec: MPa^0.5
Water2 Ra: 10.9
--
smiles notation: c1ccc(-c2nc3c4ccccc4c4ccccc4c3[nH]2)cc1
unit spec: MPa^0.5
Water2 Ra: 9.9
--
smiles notation: c1ccc(-c2nc3c4ccccc4c4ccccc4c3o2)nc1
unit spec: MPa^0.5
Water2 Ra: 13.8
--
smiles notation: c1cnc2c(c1)c1nc(-c3ccncc3)oc1c1cccnc12
unit spec: MPa^0.5
Water2 Ra: 10.8

Exercise: # Water2 Ra lookup, item c1ccc(-c2nc3c4ccccc4c4ccccc4c3o2)cc1
Solution: 13.9

Exercise: And for c1cncc(-c2nc3c4cccnc4c4ncccc4c3o2)c1 ?
Solution: 10.2

Exercise: Same again, this time with c1ccc(-c2nc3c4cccnc4c4ncccc4c3[nH]2)nc1
Solution: 5.9

----------
experiment: Hansen solubility parameters (HSP) from rated solvent library, optimized in HSPiP; Ra and RED versus water; type: physicochemical; settings: water HSP of dilute condition (15.1, 20.4, 16.5)
measurement type: Water1 RED (Ra/R0)
I only need the number, thanks.

compound: c1ccc(-c2nc3c4ccccc4c4ccccc4c3o2)cc1 [C7]
assay result: 2.8
--
compound: c1ccc(-c2nc3c4ccccc4c4ccccc4c3o2)nc1 [C8]
assay result: 2.1
--
compound: c1cncc(-c2nc3c4cccnc4c4ncccc4c3o2)c1 [C11]
assay result: 1.4
--
compound: c1cnc2c(c1)c1nc(-c3ccncc3)oc1c1cccnc12 [C10]
assay result: 1.4

Exercise: So what's the measured Water1 RED (Ra/R0) for this one? c1ccc(-c2nc3c4cccnc4c4ncccc4c3o2)cc1 [C9]
Solution: 1.1

Exercise: Next entry: c1ccc(-c2nc3c4cccnc4c4ncccc4c3o2)nc1 [C12]
Solution: 1.3
